Parameter IC50, tested on Serine/threonine-protein kinase pim-2 (Homo sapiens, UniProt Q9P1W9), listed per item.
Sequence (Q9P1W9 whole entry): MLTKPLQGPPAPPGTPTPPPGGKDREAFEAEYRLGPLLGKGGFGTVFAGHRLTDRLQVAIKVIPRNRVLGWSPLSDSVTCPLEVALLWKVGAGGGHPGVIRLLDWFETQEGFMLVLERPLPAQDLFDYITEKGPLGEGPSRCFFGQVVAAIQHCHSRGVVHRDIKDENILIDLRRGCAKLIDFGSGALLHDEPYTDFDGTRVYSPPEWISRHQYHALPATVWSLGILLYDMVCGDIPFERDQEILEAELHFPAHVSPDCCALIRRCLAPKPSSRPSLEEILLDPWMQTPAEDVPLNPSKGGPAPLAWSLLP
One number for each entry, in nM.

COMPOUND: O=C(O)c1cc2cc(Br)cc(NCCC3CCNCC3)c2o1
OBSERVED: 540
//
COMPOUND: O=C(O)c1cc2cc(Br)cc(OCC3CCNCC3)c2o1
OBSERVED: 250
//
COMPOUND: O=C(O)c1cc2cc(Br)cc(OCC(=O)N3CCNCC3)c2o1
OBSERVED: 1300
//
COMPOUND: NCCCCNc1nccc(-c2ccc3oc(C(=O)O)cc3c2)n1
OBSERVED: 590
//
COMPOUND: NC[C@H]1CC[C@H](Nc2cncc(-c3ccc4oc(C(=O)O)cc4c3)n2)CC1
OBSERVED: 21

I have 3 compounds here; please give me IC50 for each one.
1. O=C(O)c1cc2cc(Br)cc(OCc3ccncc3)c2o1
2. O=C(O)c1cc2cc(Br)cc(OCC3CCCNC3)c2o1 (stereo unspecified)
3. O=C(O)c1cc2cc(Br)cc(OCCC3CCNCC3)c2o1

1: 12500; 2: 350; 3: 350

###

test: Solubility of the compound in phosphate buffered saline buffer at pH 7.4; type: physicochemical
Task for the reader: assign each of the following compounds its reported solubility.

Reference set (2 entries):
SMI: N[C@H]1CC[C@H](Nc2cc(Br)cc3cc(C(=O)O)oc23)CC1
solubility: > 58 µg/mL

SMI: O=C(O)c1cc2cc(Br)cc(NCC3CCNCC3)c2o1
solubility: > 58 µg/mL

From here, focus on the item given below.
Form: compound = `N[C@H]1CC[C@@H](Nc2cc(Br)cc3cc(C(=O)O)oc23)CC1` ; solubility = 20.1 µg/mL

###

biological target: Serine/threonine-protein kinase pim-1 (Homo sapiens, UniProt P11309)
Sequence (P11309 whole entry): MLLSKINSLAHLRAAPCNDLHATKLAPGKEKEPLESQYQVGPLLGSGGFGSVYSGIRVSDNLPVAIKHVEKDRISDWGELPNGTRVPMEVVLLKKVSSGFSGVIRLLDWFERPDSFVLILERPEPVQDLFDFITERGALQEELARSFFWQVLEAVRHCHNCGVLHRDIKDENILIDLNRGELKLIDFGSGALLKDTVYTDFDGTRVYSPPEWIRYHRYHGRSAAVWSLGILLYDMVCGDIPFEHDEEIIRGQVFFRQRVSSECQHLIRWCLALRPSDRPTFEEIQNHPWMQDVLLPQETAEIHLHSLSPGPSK
Binary call on IC50 with cut-off 400 nM: strictly below means condition met, and equality or higher means condition not met.

Check if IC50 falls below 400 nM for `O=C(O)c1cc2cc(Br)cc(NCC3CCNCC3)c2o1` .
condition met

###

target: Serine/threonine-protein kinase pim-2 (Homo sapiens)
RESULT TYPE: IC50 (nM)
One number for each entry, in nM.

Reference set (2 entries):
SMI: O=C(O)c1cc2cc(-c3cccnc3)ccc2o1
IC50 / nM: 7100
//
SMI: O=C(O)c1cc2cc(-c3cncc(NCC4CCNCC4)n3)ccc2o1
IC50 / nM: 160

From here, focus on the item given below.
Form: compound = `O=C(CC1CCNCC1)Nc1cc(Br)cc2cc(C(=O)O)oc12` ; IC50 = 340

###

molecular target: UniProt P11712
Sequence (P11712 whole entry): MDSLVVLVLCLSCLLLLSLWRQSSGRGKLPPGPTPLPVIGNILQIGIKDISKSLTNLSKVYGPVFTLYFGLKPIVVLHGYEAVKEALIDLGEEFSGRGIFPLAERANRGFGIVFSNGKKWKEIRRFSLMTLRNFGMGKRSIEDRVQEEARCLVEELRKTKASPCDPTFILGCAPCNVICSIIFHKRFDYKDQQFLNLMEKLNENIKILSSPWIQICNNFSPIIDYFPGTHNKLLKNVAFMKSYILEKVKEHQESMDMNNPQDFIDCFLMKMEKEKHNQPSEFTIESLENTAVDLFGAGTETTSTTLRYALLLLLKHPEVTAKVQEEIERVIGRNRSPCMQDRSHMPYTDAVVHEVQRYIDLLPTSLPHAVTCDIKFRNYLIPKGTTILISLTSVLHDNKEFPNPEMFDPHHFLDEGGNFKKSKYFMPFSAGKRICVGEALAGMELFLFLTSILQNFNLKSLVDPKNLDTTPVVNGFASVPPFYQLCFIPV
RESULT TYPE: IC50

Form: compound = `N[C@H]1CC[C@H](Nc2cc(Br)cc3cc(C(=O)O)oc23)CC1` ; IC50 = > 10 µM

###

molecular target: Cytochrome P450 2D6 (Homo sapiens, UniProt P10635); assay: Inhibition of CYP2D6 in human liver microsomes; assay type: ADME, Microsome
Sequence (P10635 whole entry): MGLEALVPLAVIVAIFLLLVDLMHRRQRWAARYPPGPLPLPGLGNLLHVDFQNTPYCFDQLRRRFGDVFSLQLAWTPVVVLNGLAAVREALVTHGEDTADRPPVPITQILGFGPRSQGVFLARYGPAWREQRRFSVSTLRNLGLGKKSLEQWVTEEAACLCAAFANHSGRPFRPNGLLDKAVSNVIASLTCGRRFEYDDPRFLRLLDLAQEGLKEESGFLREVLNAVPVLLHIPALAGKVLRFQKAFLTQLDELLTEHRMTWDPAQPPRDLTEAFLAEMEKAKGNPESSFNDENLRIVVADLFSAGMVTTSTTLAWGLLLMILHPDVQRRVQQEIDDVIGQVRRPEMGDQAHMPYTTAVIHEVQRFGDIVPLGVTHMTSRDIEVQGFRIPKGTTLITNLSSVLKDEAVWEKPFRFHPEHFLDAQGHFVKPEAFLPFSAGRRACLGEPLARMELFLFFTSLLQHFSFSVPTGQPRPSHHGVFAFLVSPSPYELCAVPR
RESULT TYPE: IC50

Form: molecule = `O=C(O)c1cc2cc(Br)cc(NCC3CCNCC3)c2o1` ; IC50 = > 10 µM

###

Task for the reader: assign each of the following molecules its reported microsomal CLint.
test: Intrinsic clearance in rat liver microsomes; format: ADME, Microsome
Put your answer as a value accompanied by its unit after it.

SMI: N[C@H]1CC[C@H](Nc2cc(Br)cc3cc(C(=O)O)oc23)CC1
microsomal CLint: 8.1 µL/min/mg

I have 2 molecules here; please give me microsomal CLint for each one.
1. N[C@H]1CC[C@@H](Nc2cc(Br)cc3cc(C(=O)O)oc23)CC1
2. O=C(O)c1cc2cc(Br)cc(NCC3CCNCC3)c2o1

["10 µL/min/mg", "14.1 µL/min/mg"]

# credit: ChEMBL document CHEMBL1781944
